Numbers sourced from paper PMC5078989.

- Test system: panel of cancer cell lines
- Experimental Details: Cell viability (CellTiter-Glo) dose-response across cancer cell line panel;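 note: after 72 h compound incubation with CellTiter-Glo ATP readout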
- Assay type: cell-based, human
- Recorded Conditions: Homo sapiens, IPC-298, IPC-298 cells
- Description: Next, we explored the effect of CSN5 inhibition on the viability of cancer cells. […] A standardized CellTiter-Glo Assay (Promega #G7570) based on the quantification of ATP was applied according to the manufacturer's protocol to measure the amount of viable cells in culture. […] EC50 values were calculated from the plot of percentage of inhibition versus inhibitor concentration using the nonlinear regression analysis software Origin 7.5SR6 (OriginLab Corp.).
Measure Name: EC50
Mention the unit after the number when you answer.

*Q* What does the data say about its EC50? Entry: COCc1ccccc1NCc1ccc([C@@H]2[C@H](O)CCCc3cncn32)c(-c2ccccc2Cl)c1
*A* 10.3 µM
